# test-target: PDE4B (Homo sapiens)
# Sequence (Q07343 whole entry, species assumed): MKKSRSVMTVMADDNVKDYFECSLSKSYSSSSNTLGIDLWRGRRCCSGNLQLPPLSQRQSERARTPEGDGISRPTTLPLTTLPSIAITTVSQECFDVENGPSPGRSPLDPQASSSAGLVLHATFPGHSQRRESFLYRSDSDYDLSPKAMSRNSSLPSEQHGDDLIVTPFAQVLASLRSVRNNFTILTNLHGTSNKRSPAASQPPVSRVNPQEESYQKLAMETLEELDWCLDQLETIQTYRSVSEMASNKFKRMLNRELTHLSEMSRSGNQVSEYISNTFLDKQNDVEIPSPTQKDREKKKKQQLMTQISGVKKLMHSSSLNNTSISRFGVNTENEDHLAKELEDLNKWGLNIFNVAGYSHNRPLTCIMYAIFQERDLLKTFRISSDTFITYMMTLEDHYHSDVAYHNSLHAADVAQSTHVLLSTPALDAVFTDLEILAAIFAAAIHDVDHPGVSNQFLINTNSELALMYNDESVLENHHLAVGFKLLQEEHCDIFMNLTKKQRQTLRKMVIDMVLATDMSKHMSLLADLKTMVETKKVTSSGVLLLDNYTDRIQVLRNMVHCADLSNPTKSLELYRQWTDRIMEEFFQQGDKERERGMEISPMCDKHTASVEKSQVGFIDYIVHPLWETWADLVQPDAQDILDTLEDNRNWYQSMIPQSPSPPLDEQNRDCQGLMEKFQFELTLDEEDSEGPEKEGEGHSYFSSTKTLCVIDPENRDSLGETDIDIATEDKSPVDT
# test-summary: Scintillation Proximity Assay (SPA) of PDE4B enzymatic activity ([H3]-cAMP cleavage)
# Format: biochemical
# condition-label: test substance 1 μM; one-hour incubation with [H3]-cAMP and PDE4B at 30° C.
Counter-ions that a name gives are not always drawn.
Listing: inhibition at 1 µM of selected compounds
Give the quantity in %, number only.

Take a look at these entries with their results.
compound	test-target	assay-value
CCOCCOc1ccc(N2CCN(c3nc4c(c(Nc5cccc(F)c5)n3)[S+]([O-])CC4)CC2)nn1 (stereo not shown) [Example 17]	PDE4B (Homo sapiens)	97
Cn1c(N2CCN(c3nc4c(c(NC5CCOCC5)n3)[S+]([O-])CC4)CC2)nc2cc(F)ccc21 (stereo not shown) [Example 87]	PDE4B (Homo sapiens)	96
[O-][S+]1CCc2nc(N3CCN(c4nc(-c5ccc(F)cc5)cs4)CC3)nc(Nc3cccc(F)c3)c21 (stereo not shown) [Example 142]	PDE4B (Homo sapiens)	95
CC(C)[C@H](CO)Nc1nc(N2CCN(c3ccncn3)CC2)nc2c1[S+]([O-])CC2 (stereo partly shown) [Example 28, trifluoroacetate]	PDE4B (Homo sapiens)	94
[O-][S+]1CCc2nc(N3CCN(c4noc5ccccc45)CC3)nc(Nc3cccc(F)c3)c21 (stereo not shown) [Example 144]	PDE4B (Homo sapiens)	96

-- ask Tell me its inhibition at 1 µM given [O-][S+]1CCc2nc(N3CCN(c4ccc(Cl)cn4)CC3)nc(NC3CCOCC3)c21 (stereo not shown) [Example 14] as the entry.
-- reply 95

-- ask Tell me its inhibition at 1 µM given CCOCCOc1ccc(N2CCN(c3nc4c(c(N[C@@H](CO)C(C)C)n3)[S+]([O-])CC4)CC2)nn1 (stereo partly shown) [Example 38, trifluoroacetate] as the entry.
-- reply 96
